# procedure.details: Solvolytic defluoridation of fluoridated organotrifluoroborates by 19F-NMR
# Assay type: physicochemical
# cond: 200 mM phosphate buffer pH 7.5, 19F NMR
# From the text: The following is are representative examples of testing of solvolytic defluoridation of fluoridated organoborates as shown in FIG. 1A to FIG. 1FF and Table 1. […] As the fluoridated organotrifluoroborate salts were often contaminated with a significant amount of free fluoride, a silica column was used to remove the free fluoride from the organotrifluoroborate solution. […] The progress of solvolytic defluoridation of the fluoridated organotrifluoroborate salt was monitored using ^19F NMR spectroscopy. […]
We begin with a simple list: items and their reported pk (solvolysis) = −log k(solvolysis).

| molecule | pk (solvolysis) = −log k(solvolysis) |
| --- | --- |
| F[B-](F)(F)COCc1ccccc1 | 2.32 |
| CCCC[B-](F)(F)F [Compound 1, butyltrifluoroborate] | 0.52 |
| C=C[B-](F)(F)F [Compound 2, vinyltrifluoroborate] | 1.01 |
| F[B-](F)(F)C(Cl)Cl | 5.3372 |
| C#CC[N+](C)(C[B-](F)(F)F)C[B-](F)(F)F | 3.61 |
| O=C(CCCCO)[B-](F)(F)F | 3.5249 |
| O=C(c1ccccc1)[B-](F)(F)F [Compound 8, benzoytrifluoroborate] | 4.0700 |
| C[n+]1ccn(C[B-](F)(F)F)c1 | 2.59 |
| C#CC[N+](C)(C)C[B-](F)(F)F | 4.5036 |
| F[B-](F)(F)CBr [Compound 4, bromomethyltrifluoroborate] | 2.98 |
| C[N+](C)(CC(=O)O)C[B-](F)(F)F | 2.70 |
| F[B-](F)(F)C[n+]1ccccc1 | 4.19 |
| C[S+](C[B-](F)(F)F)c1ccccc1 (stereo not drawn) | 5.82 |
| CC[NH+](CC)C[B-](F)(F)F | 3.7554 |
| COC(=O)C[N+](C)(C)C[B-](F)(F)F | 4.17 |

###

# procedure.details: Solvolytic defluoridation of fluoridated organotrifluoroborates by 19F-NMR
# Type: physicochemical
# cond: solvolytic defluoridation, 200 mM phosphate buffer pH 7.5, 19F NMR; read-out: half-life, t1/2

| compound | measurement.unit | half-life |
| --- | --- | --- |
| O=C(CCCCO)[B-](F)(F)F | h | 38.5 |
| F[B-](F)(F)COCc1ccccc1 | h | 2.42 |
| F[B-](F)(F)C(Cl)Cl | h | 2500 |
| F[B-](F)(F)CBr [Compound 4, bromomethyltrifluoroborate] | h | 11 |
| F[B-](F)(F)C[n+]1ccccc1 | h | 178 |
| C[n+]1ccn(C[B-](F)(F)F)c1 | h | 4.43 |
| COC(=O)C[N+](C)(C)C[B-](F)(F)F | h | 172 |
| C[N+](C)(CC(=O)O)C[B-](F)(F)F | h | 5.77 |
| C[S+](C[B-](F)(F)F)c1ccccc1 (centres unmarked) | h | 7670 |
| CC[NH+](CC)C[B-](F)(F)F | h | 65.5 |
| C#CC[N+](C)(C[B-](F)(F)F)C[B-](F)(F)F | h | 47 |
| C=C[B-](F)(F)F [Compound 2, vinyltrifluoroborate] | h | 0.117 |
| C#CC[N+](C)(C)C[B-](F)(F)F | h | 367 |
